test system: glmS ribozyme; experiment: high-throughput fluorescence screen with bimolecular glmS ribozyme (fluorescein/cy3-labeled substrate); type: biochemical, S. aureus; conditions: high-throughput fluorescence screen, fluorescence ratio
resultType: Fl21 h/Flg h
Numbers only.

>>> value("N[C@H](C=O)[C@@H](O)[C@H](O)[C@H](O)COP(=O)(O)O [Compound 12, 2-amino-2-deoxy-D-mannose 6-phosphate]")
2.89
>>> value("NC1C(O)O[C@H](COP(=O)(O)S)C(O)[C@@H]1O (some centres unmarked)")
1.11
>>> value("CO[C@H]1O[C@H](COP(=O)(O)O)[C@@H](O)[C@H](O)[C@H]1N")
1.07

# batch: return Fl21 h/Flg h for each of the 4 compounds below
1. N[C@@H](CO)[C@@H](O)[C@H](O)[C@H](O)COP(=O)(O)O [Compound 3, 2-amino-2-deoxy-D-glucitol-6-phosphate]
2. N[C@@H](C=O)[C@@H](O)[C@@H](O)[C@H](O)COP(=O)(O)O [Compound 2, 2-amino-2-deoxy-D-galactose 6-phosphate]
3. CNC1C(O)O[C@H](COP(=O)(O)O)C(O)[C@@H]1O (some centres unmarked) [Compound 9, 2-methylamino-2-deoxyglucose 6-phosphate]
4. NC1O[C@H](COP(=O)(O)O)[C@@H](O)[C@H](O)[C@H]1O (some centres unmarked) [Compound 7, 1-amino-1-deoxyglucose 6-phosphate]

Output line:
[0.80, 1.69, 3.49, 1.00]

# batch: return Fl21 h/Flg h for each of the 7 compounds below
1. CO[C@@H]1O[C@H](COP(=O)(O)O)[C@@H](O)[C@H](O)[C@H]1N
2. N[C@H]1CO[C@H](COP(=O)(O)O)[C@@H](O)[C@@H]1O
3. N[C@H]1C(O)O[C@H](COP(=O)(O)O)[C@@H](O)[C@@H]1O (some centres unmarked) [Compound 1, glucosamine-6-phosphate, reference compound]
4. N[C@@H]1[C@@H](O)[C@H](O)[C@@H](COP(=O)(O)O)O[C@@H]1O [Gln6P com, reference compound]
5. CC(=O)N[C@H]1C(O)O[C@H](COP(=O)(O)O)[C@@H](O)[C@@H]1O (stereo partly drawn) [AcNGln 6P, N-acetyl-D-glucosamine 6-phosphate]
6. C[N+](C)(C)[C@@H](C=O)[C@@H](O)[C@H](O)[C@H](O)CO
7. Cl.N[C@H]1C(O)O[C@H](CO)[C@@H](O)[C@@H]1O (stereo partly drawn) [Gln com, D-(+)-glucosamine hydrochloride, reference compound]

Output line:
1: 1.02; 2: 2.52; 3: 3.36; 4: 2.24; 5: 2.28; 6: 1.17; 7: 1.87
